target_entity: Prostaglandin G/H synthase 1 (Homo sapiens)
Sequence (P23219 whole entry): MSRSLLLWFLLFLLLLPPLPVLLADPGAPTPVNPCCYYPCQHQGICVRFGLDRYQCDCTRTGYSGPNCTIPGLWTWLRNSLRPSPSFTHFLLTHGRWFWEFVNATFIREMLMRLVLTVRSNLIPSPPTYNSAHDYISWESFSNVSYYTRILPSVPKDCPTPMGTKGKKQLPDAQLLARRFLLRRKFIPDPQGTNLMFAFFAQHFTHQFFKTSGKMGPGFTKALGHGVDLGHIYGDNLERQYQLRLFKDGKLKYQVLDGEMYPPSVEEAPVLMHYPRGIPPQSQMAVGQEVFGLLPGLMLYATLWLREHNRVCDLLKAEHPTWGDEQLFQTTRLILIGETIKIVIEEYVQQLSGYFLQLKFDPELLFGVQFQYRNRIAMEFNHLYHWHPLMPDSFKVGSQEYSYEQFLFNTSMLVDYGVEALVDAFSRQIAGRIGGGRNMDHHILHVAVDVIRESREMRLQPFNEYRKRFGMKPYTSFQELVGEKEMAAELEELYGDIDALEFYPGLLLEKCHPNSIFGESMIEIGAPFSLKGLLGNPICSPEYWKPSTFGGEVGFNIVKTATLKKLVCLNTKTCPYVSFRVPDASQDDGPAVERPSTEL
experimental_readout: IC50
// return the numeric value with its unit appended

Q: # input compound: CC(C(=O)O)c1cc(C(=O)c2ccccc2)ccc1O (stereo unspecified) ; wanted: its IC50
A: 51 nM

* * *

target_entity: Prostaglandin G/H synthase 2 (Homo sapiens, UniProt P35354)
Sequence (P35354 whole entry): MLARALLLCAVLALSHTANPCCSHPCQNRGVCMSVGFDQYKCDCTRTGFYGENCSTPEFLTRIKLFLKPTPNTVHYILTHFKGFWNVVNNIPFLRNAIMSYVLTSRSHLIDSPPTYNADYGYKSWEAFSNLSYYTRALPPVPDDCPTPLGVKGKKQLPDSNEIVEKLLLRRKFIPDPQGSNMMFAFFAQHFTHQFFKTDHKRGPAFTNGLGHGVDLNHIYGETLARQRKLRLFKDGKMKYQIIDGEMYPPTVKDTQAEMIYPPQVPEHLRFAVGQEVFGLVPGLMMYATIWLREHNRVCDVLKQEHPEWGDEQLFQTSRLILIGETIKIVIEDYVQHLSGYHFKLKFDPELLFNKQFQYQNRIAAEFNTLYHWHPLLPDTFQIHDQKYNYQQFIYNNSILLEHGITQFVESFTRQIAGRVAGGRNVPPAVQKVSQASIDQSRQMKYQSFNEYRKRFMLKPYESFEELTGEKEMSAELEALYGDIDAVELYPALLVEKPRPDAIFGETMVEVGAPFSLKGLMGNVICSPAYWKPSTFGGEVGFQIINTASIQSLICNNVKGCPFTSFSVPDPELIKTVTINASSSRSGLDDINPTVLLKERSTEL
method_notes: Concentration required for 50% inhibition against Prostaglandin G/H synthase 2 from human
experimental_readout: IC50 (nM)
# number only, unit nM dropped from output

Q: # input molecule: CC(C(=O)O)c1cc(C(=O)c2ccccc2)ccc1O (stereo unspecified) ; wanted: its IC50
A: 300

Values compiled from ChEMBL document CHEMBL1133736.
